# protocol-details: Cell Viability - LYMP2-015 (AID 971);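 further: cells exposed to compound for 24 h; nearly all actives have a fitted effect of over 55% in size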
# details: LYMP2-015 lymphoblastoid cell viability; series mostly up to 92.2 µM
# From the text: NIH Chemical Genomics Center [NCGC] NIH Molecular Libraries Screening Centers Network [MLSCN] National Institutes of Environmental Health Sciences [NIEHS] National Toxicology Program [NTP] We have developed a 1536-well cell-based assay for quantitative high throughput screening (qHTS) against a number of cell lines to determine in vitro cytotoxicity of small molecules. […] 8. Detection; Luminescence; Viewlux plate reader […]
Inconclusive results are not listed. Active and inactive are the calls of the source. The call rests on the fitted dose curve; in most records, active means well fitted cell-killing curve with a large enough effect; inconclusive means small, poorly fitted or top-dose-only effect; inactive means flat fitted curve, though single readings scatter.
Could you please pick one outcome from this set? class 1 (active), class 0 (inactive)

{"compound": "c1nc[nH]n1", "assigned-category": "class 0"}
{"compound": "CCCCCCCC(=O)Cl", "assigned-category": "class 0"}
{"compound": "Cc1cccc(C#N)c1", "assigned-category": "class 0"}

Req: Test call, this compound: "Nc1c(Cl)c(Cl)nc(C(=O)O)c1Cl"
Resp: class 0

Req: Test call, this compound: "c1ccc(-c2ccccc2)cc1"
Resp: class 0

Req: Test call, this compound: "S=C=Nc1cccc2ccccc12"
Resp: class 0

Req: Test call, this compound: "Clc1nc(Cl)nc(Nc2ccccc2Cl)n1"
Resp: class 0

Req: Test call, this compound: CC(O)CCl (configuration not stated)
Resp: class 0

Req: Test call, this compound: "O=C(O)COc1ccc(Cl)cc1Cl"
Resp: class 0

Req: Test call, this compound: "CC(C)(OO)c1ccccc1"
Resp: class 1

Req: Test call, this compound: "CC(C)(C)OOC(C)(C)C"
Resp: class 0

Req: Test call, this compound: "ClC(Cl)=C(Cl)Cl"
Resp: class 0
